These measurements were taken from patent US20120165331A1.

Biological target: human orexin 1 receptor (Homo sapiens)
Experiment: Calcium accumulation in cells (FLIPR), antagonism of orexin A, human orexin 1 receptor
Settings: calcium accumulation, antagonism of orexin A, Cheng-Prusoff corrected; read-out: FLIPR hOx1R Ki
Observable: Ki
Form field: result (number plus unit)

Please look up its Ki: Cc1cc(C)nc(N2CCC3(CC2)OCCN(Cc2c[nH]c4ccccc24)C3=O)n1 1700 nM

Please look up its Ki: O=C1N(Cc2cccc3ccccc23)CCC12CCN(c1cnc3ccccc3n1)CC2 1070 nM

Please look up its Ki: Cc1cc(C)nc(N2CCC3(CC2)NCCN(Cc2nn(C)nc2-c2ccccc2)C3=O)n1 4450 nM

----------
Target: human orexin 2 receptor (Homo sapiens, UniProt O43614)
Construct: expressed in transfected cells
Sequence (O43614 whole entry): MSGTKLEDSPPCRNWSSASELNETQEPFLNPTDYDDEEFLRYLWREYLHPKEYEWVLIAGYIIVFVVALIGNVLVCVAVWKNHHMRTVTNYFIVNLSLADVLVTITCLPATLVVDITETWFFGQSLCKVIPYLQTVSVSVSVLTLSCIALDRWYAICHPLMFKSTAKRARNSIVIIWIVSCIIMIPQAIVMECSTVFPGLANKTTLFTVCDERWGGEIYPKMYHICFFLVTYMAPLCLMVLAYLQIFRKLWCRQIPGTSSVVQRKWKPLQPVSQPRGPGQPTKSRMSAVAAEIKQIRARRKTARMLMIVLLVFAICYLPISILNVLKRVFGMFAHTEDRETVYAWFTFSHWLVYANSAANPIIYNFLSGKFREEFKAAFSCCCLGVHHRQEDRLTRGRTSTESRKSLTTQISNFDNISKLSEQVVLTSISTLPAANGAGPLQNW
Test: Radioligand binding assay ([3H]-SB649868 competition), human orexin 2 receptor
Settings: radioligand [3H]-SB649868; read-out: Binding hOx2R Kd
Reported pKd by item:
The meaning of pKd here: minus log10 of the concentration in molar units.

These solved cases illustrate the format of a correct answer.
• COc1cccc(-c2nn(C)nc2CN2CCC3(CCN(c4nc(C)cc(OC)n4)C3)C2=O)c1 (centres unmarked) = 7.68
• CCc1cc(C)nc(N2CCC3(CC2)OCCN(Cc2c[nH]c4ccccc24)C3=O)n1 = 7.17
• COc1cc(C)nc(N2CCC3(CC2)OCCN(Cc2c[nH]c4ccccc24)C3=O)n1 = 7.64
• COc1cccc(-c2n[nH]nc2CN2CCNC3(CCN(c4nc(C)cc(C)n4)CC3)C2=O)c1 = 7.89
• Cc1cc(C)nc(N2CCC3(CC2)NCCN(Cc2nn(C)cc2-c2cccc(OCCOC(C)C)c2)C3=O)n1 = 6.69

Missing value: pKd, human orexin 2 receptor (Homo sapiens, UniProt O43614), entry COc1cccc(-c2sc(C)nc2CN2CCNC3(CCN(c4nc(C)cc(C#N)n4)CC3)C2=O)c1 . Fill in? 6.40

Missing value: pKd, human orexin 2 receptor (Homo sapiens, UniProt O43614), entry Cc1cc(C)nc(N2CCC3(CC2)OCCN(Cc2n[nH]cc2-c2ccccc2)C3=O)n1 . Fill in? 6.84

Missing value: pKd, human orexin 2 receptor (Homo sapiens, UniProt O43614), entry Cc1cc(C)nc(N2CCC3(CC2)NCCN(Cc2nn(C)cc2-c2cccc(OCC4CC4)c2)C3=O)n1 . Fill in? 7.30

----------
Molecular target: human orexin 2 receptor (Homo sapiens, UniProt O43614)
Assay: Calcium accumulation in cells (FLIPR), antagonism of orexin A, human orexin 2 receptor
Conditions: calcium accumulation, antagonism of orexin A, Cheng-Prusoff corrected; read-out: FLIPR hOx2R Ki
Method: Calcium Accumulation in Cells (FLIPR): Cells expressing human orexin 1 or human orexin 2 receptors, were seeded at 8,000 cells/well in 384 well black-walled clear bottom, poly-D-lysine coated plates. […] On the day of the experiment, the cells seeded in black plates were treated with assay buffer containing the Ca^2+ sensitive fluorescent dye Fluo-4-AM (2 μM), and probenecid (0.1 mM). […] Fluorescence measurements were then continued every 1 S for 120 S followed by every 4 S for 240 S. […]
Observable: Ki (nM)
Form entry: value (nM) — number only.

* COCc1cccc(-c2nn(C)nc2CN2CCNC3(CCN(c4nc(C)cc(C)n4)CC3)C2=O)c1 | 86

Please look up its Ki: Cc1csc(N2CCC3(CCN(Cc4c[nH]c5ccccc45)C3=O)C2)n1 (stereo not shown) 1410

Please look up its Ki: Cc1cnc(N2CCC3(CCN(Cc4c[nH]c5ccccc45)C3=O)C2)s1 (stereo not shown) 645

Please look up its Ki: COc1cccc(-c2n[nH]nc2CN2CCOC3(CCN(c4nc(C)cc(C)n4)CC3)C2=O)c1 1

----------
Target: human orexin 2 receptor (Homo sapiens)
Assay: Calcium accumulation in cells (FLIPR), antagonism of orexin A, human orexin 2 receptor
Settings: calcium accumulation, antagonism of orexin A, Cheng-Prusoff corrected; read-out: FLIPR hOx2R Ki
Experimental: Calcium Accumulation in Cells (FLIPR): Cells expressing human orexin 1 or human orexin 2 receptors, were seeded at 8,000 cells/well in 384 well black-walled clear bottom, poly-D-lysine coated plates. […] On the day of the experiment, the cells seeded in black plates were treated with assay buffer containing the Ca^2+ sensitive fluorescent dye Fluo-4-AM (2 μM), and probenecid (0.1 mM). […] Fluorescence measurements were then continued every 1 S for 120 S followed by every 4 S for 240 S. […]
Observable: log10(Ki) (log10 of the value in nM)
A value of 2 here means Ki of 100 in nM, since values are log10.

Missing value: log10(Ki), human orexin 2 receptor (Homo sapiens), entry COc1ccnc(N2CCC3(CCCN(Cc4c[nH]c5ccccc45)C3=O)C2)n1 (centres unmarked) . Fill in? 1.77

Missing value: log10(Ki), human orexin 2 receptor (Homo sapiens), entry COc1cc(C)nc(N2CCC3(CC2)OCCN(Cc2c[nH]c4ncccc24)C3=O)n1 . Fill in? 1.54

Missing value: log10(Ki), human orexin 2 receptor (Homo sapiens), entry Cc1cn2ccnc(N3CCC4(CCN(Cc5c[nH]c6ccccc56)C4=O)C3)c2n1 (centres unmarked) . Fill in? 2.27

Missing value: log10(Ki), human orexin 2 receptor (Homo sapiens), entry COc1cc(C)nc(N2CCC3(CC2)NCCN(Cc2nc(C)oc2-c2ccccc2)C3=O)n1 . Fill in? 2.28

----------
Molecular target: human orexin 1 receptor (Homo sapiens)
Construct: expressed in transfected cells
Sequence (O43613 1-425): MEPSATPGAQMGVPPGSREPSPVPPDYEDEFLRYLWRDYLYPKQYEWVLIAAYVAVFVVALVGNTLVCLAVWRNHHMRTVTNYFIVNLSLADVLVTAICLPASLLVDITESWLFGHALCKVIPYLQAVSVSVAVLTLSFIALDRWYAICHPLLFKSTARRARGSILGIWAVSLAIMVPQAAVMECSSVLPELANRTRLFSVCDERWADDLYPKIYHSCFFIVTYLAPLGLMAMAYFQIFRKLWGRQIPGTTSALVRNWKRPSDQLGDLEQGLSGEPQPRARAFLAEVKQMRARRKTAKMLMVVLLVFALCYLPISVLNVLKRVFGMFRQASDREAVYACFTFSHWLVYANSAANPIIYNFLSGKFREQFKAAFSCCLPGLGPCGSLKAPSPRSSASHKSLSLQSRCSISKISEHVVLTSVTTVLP
Assay: Radioligand binding assay ([3H]-SB649868 competition), human orexin 1 receptor
Conditions: radioligand [3H]-SB649868; read-out: Binding hOx1R Kd
pKd: −log10 of the molar value.
Mark Yes for reported pKd of 6 or greater; mark No for anything smaller.

Some solved cases for reference:
• CCc1cccc(-c2cn(C)nc2CN2CCNC3(CCN(c4nc(C)cc(C)n4)CC3)C2=O)c1 = No
• Cc1cc(C)nc(N2CCC3(CCC(=O)N3Cc3cccc4[nH]ccc34)CC2)n1 = No
• CC(=O)c1cccc(-c2cn(C)nc2CN2CCNC3(CCN(c4nc(C)cc(C)n4)CC3)C2=O)c1 = No

Textbook exercise: given the entry Cc1ccc(C)c(CN2C(=O)COCC23CCN(c2cnc4ccccc4n2)CC3)c1 , state whether its pKd is greater than or equal to 6. Yes

Textbook exercise: given the entry COc1cccc(-c2ocnc2CN2CCNC3(CCN(c4nc(C)cc(C)n4)CC3)C2=O)c1 , state whether its pKd is greater than or equal to 6. Yes

Textbook exercise: given the entry COc1cccc(-c2nn(C)nc2CN2CCC3(CCN(c4nc(C)cc(OC)n4)C3)C2=O)c1 (stereo not shown) , state whether its pKd is greater than or equal to 6. Yes

----------
Target: human orexin 1 receptor (Homo sapiens, UniProt O43613)
Experiment: Calcium accumulation in cells (FLIPR), antagonism of orexin A, human orexin 1 receptor
Details: calcium accumulation, antagonism of orexin A, Cheng-Prusoff corrected; read-out: FLIPR hOx1R Ki
pKi: −log10 of the molar value.
Mark t for reported pKi of 6 or greater; mark f for anything smaller.

- Cc1cc(C)nc(N2CCC3(CC2)NCCN(Cc2c[nH]c4ccc(F)cc24)C3=O)n1: t
- Cc1cc(C)nc(N2CCC3(CC2)C(=O)N(Cc2c[nH]c4ccccc24)CCN3C)n1: f
- Cc1ccnc(N2CCC3(CC2)OCCN(Cc2c[nH]c4ccccc24)C3=O)n1: f
- Cc1cc(C)nc(N2CCC3(CCN(Cc4c[nH]c5ccccc45)C3=O)C2)n1 (centres unmarked): f
- CN(C)c1cc(C(F)(F)F)nc(N2CCC3(CCN(Cc4c[nH]c5ccccc45)C3=O)C2)n1 (centres unmarked): t
- COc1cc(C)nc(N2CCC3(CC2)NCCN(Cc2nc(C)oc2-c2ccccc2)C3=O)n1: f

Textbook exercise: given the entry COc1cccc(-c2ocnc2CN2CCOC3(CCN(c4nc(C)cc(OC)n4)CC3)C2=O)c1 , state whether its pKi is greater than or equal to 6. t
